# measured.target: UniProt A0A7U3Y636
# Sequence (A0A7U3Y636 1-204): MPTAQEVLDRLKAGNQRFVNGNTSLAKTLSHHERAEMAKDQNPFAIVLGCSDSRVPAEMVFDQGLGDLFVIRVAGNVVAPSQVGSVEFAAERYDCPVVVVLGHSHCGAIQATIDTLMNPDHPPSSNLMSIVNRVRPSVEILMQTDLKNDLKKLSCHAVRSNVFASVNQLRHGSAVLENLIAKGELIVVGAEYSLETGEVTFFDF
# assay.explanation: biochemical
# Assay type: biochemical
# condition.label: read-out: Ki β-AbauCA
pKi: −log10 of the molar value.

molecule: OB1OB2OB(O)OB(O1)O2 [B4O7^2-, tetraborate]
relation.qualifier: =
pKi: 2.16
--
molecule: [N-]=[N+]=[N-] [N3^-, azide]
relation.qualifier: <
pKi: 1.00
--
molecule: [O]=[Re](=[O])(=[O])[O-] [ReO4^-, perrhenate]
relation.qualifier: =
pKi: 2.09
--
molecule: [O]=[Sn]([OH])[OH] [SnO3^2-, stannate]
relation.qualifier: =
pKi: 2.62
--
molecule: O=[N+]([O-])O [NO3^-, nitrate]
relation.qualifier: =
pKi: 1.32
--
molecule: [O-][Cl+3]([O-])([O-])O [ClO4^-, perchlorate]
relation.qualifier: <
pKi: 1.00
--
molecule: [O]=[V]([OH])([OH])[O][V](=[O])([OH])[OH] [V2O7^4-, divanadate]
relation.qualifier: =
pKi: 2.24
--
molecule: N#C[SeH] [SeCN^-, selenocyanide]
relation.qualifier: =
pKi: 3.15
--
molecule: O=C(O)O [CO3^2-, carbonate]
relation.qualifier: <
pKi: 1.00
--
molecule: O=[Se](=O)(O)O [SeO4^2-, selenate]
relation.qualifier: =
pKi: 1.74
--
molecule: O=S(=O)(O)OOS(=O)(=O)O [S2O8^2-, peroxydisulfate]
relation.qualifier: =
pKi: 2.42

* * *

# measured.target: UniProt A0A7U3Y636
# assay.explanation: biochemical
# Assay type: biochemical
observation.type: affinity / Ki for β-AbauCA (in words)

molecule: NS(=O)(=O)O
observation.type: affinity / Ki for β-AbauCA (in words)
observed.measurement: submillimolar
//
molecule: O=S(=O)(O)NS(=O)(=O)O [NH(SO3)2^2-, iminodisulfonate]
observation.type: affinity / Ki for β-AbauCA (in words)
observed.measurement: submillimolar
//
molecule: OB(O)c1ccccc1
observation.type: affinity / Ki for β-AbauCA (in words)
observed.measurement: submillimolar

* * *

# measured.target: β-AbauCA (Acinetobacter baumannii β-CA, CanB) (Acinetobacter baumannii)
# assay.explanation: biochemical
# Type: biochemical
observation.type: affinity / Ki for β-AbauCA (in words)

molecule: [O]=[Re](=[O])(=[O])[O-] [ReO4^-, perrhenate]
observed.measurement: low millimolar affinity
//
molecule: OB1OB2OB(O)OB(O1)O2 [B4O7^2-, tetraborate]
observed.measurement: low millimolar affinity
//
molecule: CCN(CC)C(=S)S [Et2NCS2^-, diethyldithiocarbamate]
observed.measurement: low millimolar affinity
//
molecule: [O]=[V]([OH])([OH])[O][V](=[O])([OH])[OH] [V2O7^4-, divanadate]
observed.measurement: low millimolar affinity
//
molecule: S [HS^-, hydrogensulfide]
observed.measurement: submillimolar
//
molecule: N#C[SeH] [SeCN^-, selenocyanide]
observed.measurement: submillimolar
//
molecule: N#CO [CNO^-, cyanate]
observed.measurement: submillimolar
//
molecule: N#CS [SCN^-, thiocyanate]
observed.measurement: low millimolar affinity
//
molecule: [O]=[Ru](=[O])(=[O])=[O] [RuO4^-, perrhuthenate]
observed.measurement: submillimolar
//
molecule: [O]=[Sn]([OH])[OH] [SnO3^2-, stannate]
observed.measurement: low millimolar affinity
//
molecule: S=C(S)S [CS3^2-, trithiocarbonate]
observed.measurement: low millimolar affinity
//
molecule: NS(N)(=O)=O [Anion H2NSO2NH2, sulfamide]
observed.measurement: low millimolar affinity

* * *

# key: entry, value: Ki
# measured.target: β-AbauCA (Acinetobacter baumannii β-CA, CanB) (Acinetobacter baumannii, UniProt A0A7U3Y636)
# assay.explanation: biochemical
# Assay type: biochemical
observation.type: Ki (mM)

compound: CCN(CC)C(=S)S [Et2NCS2^-, diethyldithiocarbamate]
observed.measurement: 8.2
//
compound: OB(O)c1ccccc1
observed.measurement: 0.29

* * *

# key: entry, value: log10 Ki
# measured.target: β-AbauCA (Acinetobacter baumannii β-CA, CanB) (Acinetobacter baumannii)
# assay.explanation: biochemical
# Format: biochemical
# condition.label: read-out: Ki β-AbauCA
observation.type: log10 Ki (log10 of the value in mM)

molecule: O=NO [NO2^-, nitrite]
observed.measurement: 1.49

molecule: NS(N)(=O)=O [Anion H2NSO2NH2, sulfamide]
observed.measurement: 0.32

molecule: S [HS^-, hydrogensulfide]
observed.measurement: -0.40

molecule: O=P(O)(O)OP(=O)(O)O [P2O7^4-, pyrophosphate]
observed.measurement: 1.53

molecule: NS(=O)(=O)O [Anion H2NSO3H, sulphamic acid]
observed.measurement: -0.20

molecule: O=S(O)O [HSO3^-, bisulphite]
observed.measurement: 1.77

molecule: O=S(=O)(O)NS(=O)(=O)O [NH(SO3)2^2-, iminodisulfonate]
observed.measurement: -0.03

molecule: N#CO [CNO^-, cyanate]
observed.measurement: -0.10

molecule: S=C(S)S [CS3^2-, trithiocarbonate]
observed.measurement: 0.52

molecule: O=S(=O)(O)O [SO4^2-, sulphate]
observed.measurement: 1.90

molecule: O=[Te](=O)(O)O [TeO4^2-, tellurate]
observed.measurement: 0.78

molecule: [O]=[Ru](=[O])(=[O])=[O] [RuO4^-, perrhuthenate]
observed.measurement: -0.02
